- Assay method text: Acute toxicity against mice
- Particulars: mouse, in vivo, po, mice (ICR, male, 22-25 g)
Assay readout: LD50

INSERT INTO results (compound, assay_readout, observed) VALUES
  ('NC(=O)c1nc[nH]c1O [Compound A, 4-carbamoyl-5-hydroxyimidazole]', 'LD50', '> 2000 mg/kg');

====

- Assay method text: Acute toxicity against mice
- Particulars: mouse, in vivo, ip, mice (ICR, male, 22-25 g)
- Description: Acute toxicity of Compound A against mice (ICR, male, body weight 22-25 g) was as follows.
Assay readout: LD50

INSERT INTO results (compound, assay_readout, observed) VALUES
  ('NC(=O)c1nc[nH]c1O [Compound A, 4-carbamoyl-5-hydroxyimidazole]', 'LD50', '> 500 mg/kg');
